Tested on: SpTbr T-box DNA-binding domain (GST fusion);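 further: protein at 200 nM in PBS on universal double-stranded arrays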
Sequence: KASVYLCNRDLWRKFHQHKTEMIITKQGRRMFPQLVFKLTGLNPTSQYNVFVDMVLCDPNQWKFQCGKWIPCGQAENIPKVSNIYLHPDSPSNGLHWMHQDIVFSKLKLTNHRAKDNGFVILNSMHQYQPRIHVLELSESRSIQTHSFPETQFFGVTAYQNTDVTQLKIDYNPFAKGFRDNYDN
Assay: PBM E-score of 8-mer (E-score (dimensionless, -0.5 to 0.5)); higher = stronger binding preference
Settings: the construct has about 5 more residues each side
Over roughly 33,000 sequences, “E-score (dimensionless, -0.5 to 0.5)” has its median near -0.046; the highest 2% begin near 0.36. The list comes from a sample in which the highest values are over-represented; it also holds close analogues and randomly drawn sequences.
Measured PBM E-score of 8-mer values are reported for all entries that follow.

{"biopolymer_sequence": "AGTTGTTG", "PBM E-score of 8-mer": 0.245}
{"biopolymer_sequence": "GGGGAGCA", "PBM E-score of 8-mer": -0.25}
{"biopolymer_sequence": "AGTTGTTA", "PBM E-score of 8-mer": 0.369}
{"biopolymer_sequence": "CAGACTCA", "PBM E-score of 8-mer": -0.0949}

====

System: SpTbr T-box DNA-binding domain (GST fusion);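 further: protein at 200 nM in PBS on universal double-stranded arrays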
Sequence: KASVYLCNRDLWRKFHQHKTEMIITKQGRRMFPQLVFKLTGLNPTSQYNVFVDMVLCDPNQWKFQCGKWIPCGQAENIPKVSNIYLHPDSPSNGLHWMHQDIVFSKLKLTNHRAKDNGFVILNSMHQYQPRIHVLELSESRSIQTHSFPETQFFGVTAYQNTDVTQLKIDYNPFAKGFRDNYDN
Test: PBM E-score of 8-mer (E-score (dimensionless, -0.5 to 0.5)); Tbr is Tbrain of the sea star Patiria miniata (Pm) or the sea urchin Strongylocentrotus purpuratus (Sp); higher = stronger binding preference
Conditions: target sequence: T-box / the construct has about 5 more residues each side
Over roughly 33,000 sequences, “E-score (dimensionless, -0.5 to 0.5)” has its median near -0.046; the highest 2% begin near 0.36. The entries come from a sample that favours the highest values as a whole.

{"biopolymer_sequence": "GATCGTGA", "measured_target": "SpTbr T-box DNA-binding domain (GST fusion)", "PBM E-score of 8-mer": 0.173}
{"biopolymer_sequence": "ACGCGAAC", "measured_target": "SpTbr T-box DNA-binding domain (GST fusion)", "PBM E-score of 8-mer": 0.276}
{"biopolymer_sequence": "GCGCGAAA", "measured_target": "SpTbr T-box DNA-binding domain (GST fusion)", "PBM E-score of 8-mer": 0.437}
{"biopolymer_sequence": "CACCTGAC", "measured_target": "SpTbr T-box DNA-binding domain (GST fusion)", "PBM E-score of 8-mer": 0.374}
{"biopolymer_sequence": "AACCTATA", "measured_target": "SpTbr T-box DNA-binding domain (GST fusion)", "PBM E-score of 8-mer": -0.123}
{"biopolymer_sequence": "CACCTGTA", "measured_target": "SpTbr T-box DNA-binding domain (GST fusion)", "PBM E-score of 8-mer": 0.331}
{"biopolymer_sequence": "CGGAGACA", "measured_target": "SpTbr T-box DNA-binding domain (GST fusion)", "PBM E-score of 8-mer": -0.0395}
{"biopolymer_sequence": "AACCTGAC", "measured_target": "SpTbr T-box DNA-binding domain (GST fusion)", "PBM E-score of 8-mer": 0.121}
{"biopolymer_sequence": "CCGCGAAC", "measured_target": "SpTbr T-box DNA-binding domain (GST fusion)", "PBM E-score of 8-mer": 0.338}
{"biopolymer_sequence": "CACCTAGG", "measured_target": "SpTbr T-box DNA-binding domain (GST fusion)", "PBM E-score of 8-mer": 0.392}

FYI, the data here is from the supplement of paper PMC4166925.
